Numbers sourced from patent EP4682169A1.

- assayed.system: T1, Claudin 18.2 VLP (UniProt P56856 1-261)
- T1 construct: Antigen coated on ELISA plates, 200 ng/well; source and construct not described; also called Claudin18.2-VLP protein; Claudin18.2 VLP antigen
- experiment.notes: ELISA, coated antigen 200 ng/well; antibody 3.333 ug/mL
Provide the recorded absorbance at 450 nm for the entries that follow.
One number for each entry.

Could you report absorbance at 450 nm for every entry in the following list?
1. 8-hIgG1Fc (Fc fusion, VHH-hIgG1Fc recombinant antibody; also called 8-hlgG1 Fc; VHH-hIgG1Fc recombinant antibody of clone 8; not shown: human IgG1 Fc (hIgG1Fc)) QVQLVESGGGLVQPGGSLRLSCAASGSIFGLNFMGWWRQAPGSQRELVAIATSGGSIQYGDSVKGRFTISRDNAKNTVYLQMASLKPEDTAVYYCNVHTYDFLGRDYWGQGTQVTVSL
2. 10-hIgG1Fc (Fc fusion, VHH-hIgG1Fc recombinant antibody; also called 10-hlgG1Fc; VHH-hIgG1Fc recombinant antibody of clone 10; not shown: human IgG1 Fc (hIgG1Fc)) QVQLAESGGGLVQPGGSLRLSCAASGNILSINYMGWYRQAPGKERELVATITRGGTTNYQGDLKGRFIISGDNTKDTVYLQMNNLQPEDTAVYYCYFRINFGILGGLRDYWGQGTQVTVSS
3. 5-hIgG1Fc (Fc fusion, VHH-hIgG1Fc recombinant antibody; also called 5-hlgG1Fc; VHH-hIgG1Fc recombinant antibody of clone 5; not shown: human IgG1 Fc (hIgG1Fc)) QVQLVESGGGLVQTGGSLRLSCAASDSTFSSYIMGWFRQAPGKEREFVAGITWSGGIKDYADSVKGRFTIARDNAKNTVYLQMNSLKPEDAAIYYCAANAIQLTRRSGDYAYWGQGTQVTVSS

2.1
2.51
2.14

Tell me the measured absorbance at 450 nm of 1-hIgG1Fc (Fc fusion, VHH-hIgG1Fc recombinant antibody; also called 1-hlgG1Fc; VHH-hIgG1Fc recombinant antibody of clone 1; not shown: human IgG1 Fc (hIgG1Fc)) EVQLVGSGGGLVQPGGSLRLSCAASGSILNLMTTGWYRQAPGKQRDLVATITFGGTTNYADSVKGRFTISRDKSKNTAYLQMDNLKPEDTAVYFCYADVIVGFQDRRVAWDAGTQVTVSS , please.
2.13
